Values compiled from PubChem BioAssay.

# Protocol: inhibitors of hydroxyurea-induced Chk1 phosphorylation, primary screen, imaging, HeLa, phospho-Chk1 antibody, percent positive cells (AID 1186)
# Run conditions: hydroxyurea-induced phospho-Chk1 immunofluorescence imaging, higher = more signal
Where z-score equals or exceeds -0.2, the correct label is Criterion met; where it does not, the label is Criterion not met.

# example entries with known answers
> print(dat)
                                   compound     category.label
1  CC1(C)OB(/C=C\CC(OC(=O)c2ccncc2)c2ccccc2)OC1(C)C (stereo not drawn)      Criterion met
2  CC(C)(C)OC(=O)CC[C@]1(C(=O)N2CCOCC2)COC(c2ccc(OCCCO)cc2)=N1      Criterion met
3  COc1ccc(CCNC(=O)[C@@]2(C)c3ccccc3C(=O)N(Cc3ccc(OC(F)(F)F)cc3)[C@H]2c2ccc(CO)cc2)cc1      Criterion met
4  CCc1cccc(NC(=O)O[C@H]2[C@H](OC(=O)Nc3ccccc3-c3ccccc3)[C@H](OC(=O)Nc3ccccc3-c3ccccc3)[C@@H](OC)O[C@@H]2CO)c1  Criterion not met
5  C=CCNC(=O)[C@@H]1[C@H]2C(=O)O[C@H](c3ccccc3)[C@H](c3ccccc3)N2[C@H](c2ccc(O)cc2)[C@@]12C(=O)Nc1ccc(C#CC3=CCCCC3)cc12      Criterion met
6  CC[C@@H](O[Si](C#C[Si](C(C)C)(C(C)C)C(C)C)(C(C)C)C(C)C)c1cn([C@H](CO)Cc2ccccc2)nn1      Criterion met
7  COc1ccc([Si](C)(C)[C@H]2[C@H](CC(=O)N3CCC[C@H]3CO)O[C@@]3(C(=O)N(C)c4ccccc43)[C@@H]2C)cc1  Criterion not met

Dear colleague, could you confirm whether O=C/C=C/c1ccc(-c2ccccc2)cc1 has z-score at or above -0.2?
Criterion met
